test system: Candida albicans; assay: Antimycotic activities of similar compounds in a manner similar to Test 1, oral administration (Referential Test); format: in vivo, Candida albicans (in male ICR mice); details: in Mus musculus, 336 h, Dose (mg) 40, oral, read-out: T/C
Is response vs control in vivo at 40 mg at least 90%? Then 1. If not, -1.

- compound-structure: "N#Cc1ccc(C(O)(Cn2cncn2)Cn2cncn2)c(F)c1"
  assigned-class: -1
- compound-structure: "Oc1c(F)cc(C(O)(Cn2cncn2)Cn2cncn2)cc1F"
  assigned-class: -1
- compound-structure: "Oc1cc(F)c(F)cc1C(O)(Cn1cncn1)Cn1cncn1"
  assigned-class: 1
- compound-structure: "CCCOc1cc(F)ccc1C(O)(Cn1cncn1)Cn1cncn1"
  assigned-class: 1

Entry `OC(Cn1cncn1)(Cn1cncn1)c1ccc(F)cc1OCc1ccc(F)cc1` : is its response vs control in vivo at 40 mg no less than 90%?
1

Test whether the molecule `CC(=O)Nc1ccc(C(O)(Cn2cncn2)Cn2cncn2)c(F)c1` records response vs control in vivo at 40 mg of 90% or higher.
-1
